Source of measurements: patent US20240190986A1

target: T1, MSLN.Fc protein (human, UniProt Q13421 296-598, limits assumed); experiment: ELISA, antigen coated, TG1 supernatant; note: test concentration or dose not given here
T1 construct: also called MSLN·hFc; MSLN protein; not shown: human IgG Fc fragment
T1 sequence (Q13421 other isoform, or with tags, fused parts or gaps limits assumed): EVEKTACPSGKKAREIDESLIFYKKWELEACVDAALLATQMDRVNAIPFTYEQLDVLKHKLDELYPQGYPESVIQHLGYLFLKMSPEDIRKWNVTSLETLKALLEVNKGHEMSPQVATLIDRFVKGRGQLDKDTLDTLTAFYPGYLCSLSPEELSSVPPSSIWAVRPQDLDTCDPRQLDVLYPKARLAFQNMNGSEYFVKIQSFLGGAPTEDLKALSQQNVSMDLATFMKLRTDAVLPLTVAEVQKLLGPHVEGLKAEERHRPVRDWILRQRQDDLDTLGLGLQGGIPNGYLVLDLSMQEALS
Each item that follows carries a reported ELISA (OD450).
Express your answer in OD450, writing the number without its unit.

M012 (VHH, Nanoantibody in TG1 supernatant in the screening ELISA; also called clone M012) VHH: QVQLVESGGDLVQTGGSLRLSCVVSGSTFAINAMGWYRQAPGKERELVAAISSGGDSTHYADDVKGRFTISRDNAENTMYLQMKSLKPEDTAVYVCNARGCRDFHNPQALCVLRDYWGQGTQVTVSS | 0.938
M182 (VHH, Nanoantibody in TG1 supernatant in the screening ELISA; also called clone M182) VHH: QVQLVESGGGSVQAGGSLTLSCAASGAVSSINAMGWYRQTPEKVRQLVATMGSGGNTYYAASVKGRFTISRDYAKNTVALQMNHLLPEDTAVYYCAADRFGADIREVDYWGKGTQVTVSS | 1.03
M118 (VHH, Nanoantibody in TG1 supernatant in the screening ELISA; also called clone M118) VHH: EVQLVESGGGLVQAGGSLTLSCAASEHTFTIDAMGYYRQIPGRRNERQLVAAAGRTGTTYYNDAVKDRFTIYRDTSKETIILQMNNLRPEDTTMYYCAVERYSDQSRFFGPGTQVTVSS | 2.05
M169 (VHH, Nanoantibody in TG1 supernatant in the screening ELISA; also called clone M169) VHH: EVQLVESGGGTVQPGESLRLSCEASGAVSTINAMGWYRQTPEMRKLVATMGSGGNTYYADSVKGRFTISRDFAGNTVDLQMNDLKPEDTGVYFCAADKFGADIKEVAYWGKGTLVTVSS | 1.36
M344 (VHH, Nanoantibody in TG1 supernatant in the screening ELISA; also called clone M344) VHH: QVQLVESGGGLVQSGGSLRLSCVASGSAFSFDAMGWYRQFSATRRERQLVVATSRDGRTYYADSVKGRFTATRDNSKNSLYLEMNSLKPEDTAIYYCAAGDDPKNYSWGQGTQVTVSS | 2.22

What value of measured ELISA (OD450) is listed for M132 (VHH, Nanoantibody in TG1 supernatant in the screening ELISA; also called clone M132) VHH: QVQLVESGGGLVQAGGSLSLSCVASGDAFSFDAMGWYRQFSGKVNERQLVVATSRDGRTAYGERVKGRFTASRDNSKNTLSLVMNNLQVEDTAIYYCAAGDDPKDYYWGQGTQVTVSS ?
1.34

What value of measured ELISA (OD450) is listed for M050 (VHH, Nanoantibody in TG1 supernatant in the screening ELISA; also called clone M050) VHH: EVQLQESGGGLVQAGGSLRLSCAASGAVSSINAMGWYRQTPEKVRKLVATMGSGGNTYYADSVKGRFTISRDYAKNTVALQMNNLIPEDTAVYYCAADKFGADIHEVDYWGKGTLVTVSS ?
2.72

What value of measured ELISA (OD450) is listed for M129 (VHH, Nanoantibody in TG1 supernatant in the screening ELISA; also called clone M129) VHH: QVQLVESGGGSAQAGGSLILSCVASANLFTIDALGWYRQAPGPKRELVAAISSGGNKYYADAVKGRFTISRDTLTKTMWLQMNNLKPEDTAMYYCAAEDYGLGQRSWGMGTQVTVSS ?
2.4

What value of measured ELISA (OD450) is listed for M044 (VHH, Nanoantibody in TG1 supernatant in the screening ELISA; also called clone M044; M044 antibody) VHH: QVQVVESGGGFVQAGGSLRLSCAASTPIISIAYMGWYRQISEKERQLVATINSGGKTYYADSVKGRFTISRDNAKNTLYLQMNMLKPEDTGMYYCAASNKDYNDYDPDWGQGTQVTVSS ?
2.2

What value of measured ELISA (OD450) is listed for M224 (VHH, Nanoantibody in TG1 supernatant in the screening ELISA; also called clone M224) VHH: QVQLVESGGGLVQPGGSLRLSCAASGFTFHYYAIGWFRQAPGKEREGVSCISSSGDSTWFSDSVKGRFTVSRDNAKNIVHLQMNNLKPEDTAVYYCAGTTRSGYVCYDAEPYDSWGQGTQVTVSS ?
1.45
